The measurements presented in this section are drawn from patent US20100120763A1.

Molecular target: PDE2A (Homo sapiens, UniProt O00408)
Construct: made in house; host or cells: SF21 insect cells (baculovirus)
Sequence (O00408 whole entry): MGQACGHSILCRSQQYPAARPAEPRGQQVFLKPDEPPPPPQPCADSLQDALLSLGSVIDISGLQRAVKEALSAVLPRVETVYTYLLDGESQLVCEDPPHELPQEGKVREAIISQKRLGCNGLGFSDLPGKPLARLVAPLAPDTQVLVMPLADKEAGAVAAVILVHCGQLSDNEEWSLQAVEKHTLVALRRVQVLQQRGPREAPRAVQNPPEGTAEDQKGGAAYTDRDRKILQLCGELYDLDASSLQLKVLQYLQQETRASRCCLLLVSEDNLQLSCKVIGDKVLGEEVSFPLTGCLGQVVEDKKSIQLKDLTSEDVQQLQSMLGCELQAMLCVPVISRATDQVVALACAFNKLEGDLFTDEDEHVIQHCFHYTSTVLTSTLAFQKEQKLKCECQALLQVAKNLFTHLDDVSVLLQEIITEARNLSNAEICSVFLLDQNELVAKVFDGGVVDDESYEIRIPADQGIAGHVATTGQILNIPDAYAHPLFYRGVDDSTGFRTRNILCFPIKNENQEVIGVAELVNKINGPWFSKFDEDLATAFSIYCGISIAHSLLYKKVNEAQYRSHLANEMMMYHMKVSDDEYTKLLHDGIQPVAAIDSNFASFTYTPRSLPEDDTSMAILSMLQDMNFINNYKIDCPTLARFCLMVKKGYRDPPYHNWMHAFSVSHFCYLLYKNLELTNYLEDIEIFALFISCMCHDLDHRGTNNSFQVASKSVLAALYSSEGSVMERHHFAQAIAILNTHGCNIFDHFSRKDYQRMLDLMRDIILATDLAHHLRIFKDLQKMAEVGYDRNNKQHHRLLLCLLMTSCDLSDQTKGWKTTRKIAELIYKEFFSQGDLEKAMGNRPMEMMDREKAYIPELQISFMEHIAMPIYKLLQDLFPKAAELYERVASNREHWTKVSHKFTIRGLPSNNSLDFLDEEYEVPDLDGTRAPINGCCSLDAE
Experiment: Inhibition of recombinant PDE2A (expressed in baculovirus/SF21-cells), [3H]-cAMP SPA
Format: biochemical
pIC50: −log10 of the molar value.
MEASUREMENT_TYPE: pIC50

# STRUCTURE_SMILES_STRING, SYSTEM, MEASUREMENT_QUALIFIER, NUMERIC_VALUE
rows = [
    ("COc1cc(F)c2nnc3c(C)nc(-c4ccncc4)n3c2c1", "PDE2A (Homo sapiens, UniProt O00408)", "=", 5.90),
    ("CCCc1nc(C)c2nnc3ccc(F)cc3n12", "PDE2A (Homo sapiens, UniProt O00408)", "=", 6.15),
    ("Cc1nc(-c2cc(Cl)ccc2Cl)n2c1nnc1ccc(N3CCOCC3)cc12", "PDE2A (Homo sapiens, UniProt O00408)", "=", 8.64),
    ("COc1cc(F)cc2c1nnc1c(C)nc(-c3cc(C)ccc3Cl)n12", "PDE2A (Homo sapiens, UniProt O00408)", "=", 7.20),
    ("CCOc1ccc(F)c(-c2nc(C)c3nnc4ccc(F)cc4n23)c1", "PDE2A (Homo sapiens, UniProt O00408)", "=", 6.62),
    ("COc1cccc2c1nnc1c(C)nc(-c3ccccc3Cl)n12", "PDE2A (Homo sapiens, UniProt O00408)", "=", 6.99),
    ("Cc1ccccc1-c1nc(C)c2nnc3ccc(F)cc3n12", "PDE2A (Homo sapiens, UniProt O00408)", "=", 6.91),
    ("Cc1nc(-c2ccccc2Cl)n2c1nnc1ccc(N3CCCCC3)cc12", "PDE2A (Homo sapiens, UniProt O00408)", "=", 8.11),
    ("CCOc1ccc(Cl)c(-c2nc(C)c3nnc4c(F)cc(OC)cc4n23)c1", "PDE2A (Homo sapiens, UniProt O00408)", "=", 7.99),
    ("COc1cc(F)cc2c1nnc1c(C)nc(-c3ccc(C)cc3Cl)n12", "PDE2A (Homo sapiens, UniProt O00408)", "=", 6.20),
    ("CCc1nc(C)c2nnc3ccc(F)cc3n12", "PDE2A (Homo sapiens, UniProt O00408)", "=", 5.42),
    ("CCOc1ccc(Cl)c(-c2nc(C)c3nnc4c(OC)cc(F)cc4n23)c1", "PDE2A (Homo sapiens, UniProt O00408)", "=", 7.26),
    ("COc1cc(F)c2nnc3c(C)nc(-c4cc(Cl)ccc4F)n3c2c1", "PDE2A (Homo sapiens, UniProt O00408)", "=", 7.85),
    ("COc1ccc2c(c1)nnc1c(C)ncn12", "PDE2A (Homo sapiens, UniProt O00408)", "<", 5.30),
    ("COc1cc(OCc2ccccc2)cc2c1nnc1c(C)nc(-c3cccnc3C)n12", "PDE2A (Homo sapiens, UniProt O00408)", "=", 7.13),
    ("COc1cc(N2CCOCC2)cc2c1nnc1c(C)nc(-c3cccnc3C)n12", "PDE2A (Homo sapiens, UniProt O00408)", "=", 7.15),
    ("COc1cc(F)c2nnc3c(C)nc(-c4sccc4C)n3c2c1", "PDE2A (Homo sapiens, UniProt O00408)", "=", 7.44),
    ("COc1cc(F)cc2c1nnc1c(C)nc(-c3cc(C(F)(F)F)ccc3Cl)n12", "PDE2A (Homo sapiens, UniProt O00408)", "=", 6.59),
    ("Cc1nc(-c2cc(OC(C)C)ccc2F)n2c1nnc1ccc(Cl)cc12", "PDE2A (Homo sapiens, UniProt O00408)", "=", 6.63),
    ("Cc1nc(-c2cc(Cl)ccc2Cl)n2c1nnc1ccc(N3CCCCC3)cc12", "PDE2A (Homo sapiens, UniProt O00408)", "=", 8.16),
    ("Cc1nc(-c2cccc(Cl)c2Cl)n2c1nnc1ccc(-c3cccc(Cl)c3Cl)cc12", "PDE2A (Homo sapiens, UniProt O00408)", "=", 7.21),
    ("Cc1ccccc1-c1nc(C)c2nnc3cc(F)ccc3n12", "PDE2A (Homo sapiens, UniProt O00408)", "=", 6.91),
    ("COc1cc(C(F)(F)F)cc2c1nnc1c(C)nc(-c3ccoc3)n12", "PDE2A (Homo sapiens, UniProt O00408)", "<", 6.00),
    ("COc1cc(N2CCOCC2)cc2c1nnc1c(C)nc(-c3ccccc3Cl)n12", "PDE2A (Homo sapiens, UniProt O00408)", "=", 7.30),
    ("Cc1ncccc1-c1nc(C)c2nnc3ccc(F)cc3n12", "PDE2A (Homo sapiens, UniProt O00408)", "=", 6.73),
    ("COc1cc2nnc3c(C)nc(-c4ccccn4)n3c2cc1OC", "PDE2A (Homo sapiens, UniProt O00408)", "=", 5.66),
    ("Cc1nc(-c2cc(Cl)ccc2Cl)n2c1nnc1ccc(Cl)cc12", "PDE2A (Homo sapiens, UniProt O00408)", "=", 8.27),
    ("Cc1nc(-c2cc(Cl)ccc2Cl)n2c1nnc1cc(F)ccc12", "PDE2A (Homo sapiens, UniProt O00408)", "=", 7.53),
    ("COc1ccc(Cl)c(-c2nc(C)c3nnc4c(F)cc(OC)cc4n23)c1", "PDE2A (Homo sapiens, UniProt O00408)", "=", 8.48),
    ("COc1ccccc1-c1nc(C)c2nnc3ccc(F)cc3n12", "PDE2A (Homo sapiens, UniProt O00408)", "=", 6.45),
    ("COc1ccc2nnc3c(C)nc(-c4cc(Cl)ccc4Cl)n3c2c1", "PDE2A (Homo sapiens, UniProt O00408)", "=", 8.48),
    ("COc1cc(F)cc2c1nnc1c(C)nc(-c3sc(C)nc3C)n12", "PDE2A (Homo sapiens, UniProt O00408)", "=", 5.47),
    ("COc1cc(F)c2nnc3c(C)nc(-c4c(C)noc4C)n3c2c1", "PDE2A (Homo sapiens, UniProt O00408)", "=", 6.09),
    ("COc1cc(N2CCOCC2)cc2c1nnc1c(C)nc(-c3ccncc3C)n12", "PDE2A (Homo sapiens, UniProt O00408)", "=", 6.36),
    ("Cc1nc(-c2ccccc2Cl)n2c1nnc1ccc(N3CCOCC3)cc12", "PDE2A (Homo sapiens, UniProt O00408)", "=", 8.19),
    ("COc1cc(F)c2nnc3c(C)nc(-c4c(C)nn(C)c4C)n3c2c1", "PDE2A (Homo sapiens, UniProt O00408)", "=", 7.43),
    ("Cc1cc(F)ccc1-c1nc(C)c2nnc3cc(F)ccc3n12", "PDE2A (Homo sapiens, UniProt O00408)", "=", 6.53),
    ("CCCCOc1ccc(F)c(-c2ccc3nnc4c(C)nc(-c5cc(OCCCC)ccc5F)n4c3c2)c1", "PDE2A (Homo sapiens, UniProt O00408)", "=", 9.11),
]
